Target: CYP2C9 (Homo sapiens)
Sequence (P11712 whole entry): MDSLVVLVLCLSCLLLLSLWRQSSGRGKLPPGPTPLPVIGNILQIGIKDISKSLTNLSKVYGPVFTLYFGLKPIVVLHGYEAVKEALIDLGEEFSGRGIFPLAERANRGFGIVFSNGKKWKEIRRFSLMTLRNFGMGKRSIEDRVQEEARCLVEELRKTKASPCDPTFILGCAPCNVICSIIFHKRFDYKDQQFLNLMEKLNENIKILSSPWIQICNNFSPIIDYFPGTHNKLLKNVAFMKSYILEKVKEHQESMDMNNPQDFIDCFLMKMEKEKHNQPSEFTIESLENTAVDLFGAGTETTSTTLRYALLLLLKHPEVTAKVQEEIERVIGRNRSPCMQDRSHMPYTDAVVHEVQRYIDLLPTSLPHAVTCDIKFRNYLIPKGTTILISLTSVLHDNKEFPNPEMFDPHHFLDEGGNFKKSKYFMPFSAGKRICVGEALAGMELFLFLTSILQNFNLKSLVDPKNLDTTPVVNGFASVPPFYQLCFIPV
Test: Cytochrome P450 inhibition assay, CYP2C9
Type: biochemical
Details: probe 7-methoxy-4-(trifluoromethyl)coumarin
inhibition at 10 µM values, listed per item
readout type: inhibition at 10 µM

>>> print(df.to_string())
                                   compound  obs_value
0  CC(=O)N1CCC(NC(=O)NC23CC4CC(C)(CC(C2)c2c(F)cccc24)C3)CC1 (centres unmarked)         6%
1  COc1cc2c(cc1OC)C1CC3(C)CC2CC(NC(=O)NC2CCN(C(C)=O)CC2)(C1)C3         8%
2  CC(=O)N1CCC(NC(=O)NC23CC4CC(C)(CC(C2)c2cc([N+](=O)[O-])ccc24)C3)CC1 (centres unmarked)        20%
3  COc1ccc2c(c1)C1CC3(C)CC2CC(NC(=O)NC2CCN(C(C)=O)CC2)(C1)C3 (centres unmarked)        12%
4  CC(=O)c1ccc2c(c1)C1CC3(C)CC2CC(NC(=O)NC2CCN(C(C)=O)CC2)(C1)C3 (centres unmarked)         9%
5  CC(=O)N1CCC(NC(=O)NC23CC4CC(C)(CC(C2)c2cc(F)ccc24)C3)CC1 (centres unmarked)        12%
6  COc1cc2c(cc1OC)C1CC3(F)CC2CC(NC(=O)NC2CCN(C(=O)C4CCOCC4)CC2)(C1)C3         8%
7  COc1cc2c(cc1OC)C1CC3(C)CC2CC(NC(=O)NC2CCN(C(=O)C4CCOCC4)CC2)(C1)C3        22%

----------
Assay: Microsomal stability, human
Format: in vitro ADME
Details: after 60 min, pooled human microsomes, NADPH, 37 °C
Microsomal stability Human, percentage of remaining compound values, listed per item
readout type: Microsomal stability Human, percentage of remaining compound (%)

                                   compound  obs_value
0  CC(=O)N1CCC(NC(=O)NC23CC4CC(C)(CC(C2)c2cc(F)ccc24)C3)CC1 (centres unmarked) [Compound 14]         22
1  COc1ccc2c(c1)C1CC3(C)CC2CC(NC(=O)NC2CCN(C(C)=O)CC2)(C1)C3 (centres unmarked) [Compound 15]         33
2  CC(=O)c1ccc2c(c1)C1CC3(C)CC2CC(NC(=O)NC2CCN(C(C)=O)CC2)(C1)C3 (centres unmarked) [Compound 16]         92
3  COc1cc2c(cc1OC)C1CC3(C)CC2CC(NC(=O)NC2CCN(C(=O)C4CCOCC4)CC2)(C1)C3 [Compound 20]         80
4  CC(=O)N1CCC(NC(=O)NC23CC4CC(C)(CC(C2)c2cc([N+](=O)[O-])ccc24)C3)CC1 (centres unmarked) [Compound 17]        100
5  COc1cc2c(cc1OC)C1CC3(C)CC2CC(NC(=O)NC2CCN(C(C)=O)CC2)(C1)C3 [Compound 19]        100
6  COc1cc2c(cc1OC)C1CC3(F)CC2CC(NC(=O)NC2CCN(C(=O)C4CCOCC4)CC2)(C1)C3 [Compound 21]        100
7  CC(=O)N1CCC(NC(=O)NC23CC4CC(C)(CC(C2)c2c(F)cccc24)C3)CC1 (centres unmarked) [Compound 13]         16
